Reported pKd values are given for each entry in this list.
Biological target: T1, recombinant human IL-17RA Fc fusion protein (R&D Systems 177-IR-100) (human, UniProt Q96F46 33-320)
T1 construct: Bought protein; not shown: Fc domain of human IgG1
T1 sequence: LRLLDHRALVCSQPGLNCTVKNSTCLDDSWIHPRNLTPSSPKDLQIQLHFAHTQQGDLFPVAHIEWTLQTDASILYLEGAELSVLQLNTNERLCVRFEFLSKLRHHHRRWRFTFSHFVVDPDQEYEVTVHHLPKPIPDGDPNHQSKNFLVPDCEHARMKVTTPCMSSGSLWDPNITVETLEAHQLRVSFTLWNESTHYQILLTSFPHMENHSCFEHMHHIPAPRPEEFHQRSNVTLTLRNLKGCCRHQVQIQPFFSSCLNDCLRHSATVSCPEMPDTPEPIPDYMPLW
Assay: BIAcore T200 single-cycle kinetics, IL-17RA-Fc captured on protein G chip, VH as analyte
Would you please state pKd, meaning minus log10 of the concentration in mol/L, as a bare number?

Quick one: pKd of VH clone 4.1 (VHH, Human VH single domain antibody, no light chain; Parent clone of family 4) VHH: QVQLVQSGAEVKKPGASVKVSCKASGYPFTNYDISWIRQATGQSLEWMGWMNPDSGNTGYAQKFQGRVTMTRNTSISTAYMELSGLRSEDTAVYFCARGGYNAWRTDYWGQGTLVTVSS ? 8.35

Quick one: pKd of VH clone 6.1 (VHH, Human VH single domain antibody, no light chain; Parent clone of family 6) VHH: EVQLVESGGGLVKPGGSLRLSCAASGFTFSDDYMSWLRQAPGKGLEWVSYISSSGSTIYYADSVKGRFTISRDNAKNSLYLQMNSLRAEDSAVYYCARKDITNIAVGSLGYWGQGTLVTVSS ? 7.51
